# Assayed system: Cytochrome P450 3A4 (Homo sapiens, UniProt P08684);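 further: CYP3A4 tested as one member of a cytochrome P450 panel screen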
# Sequence (P08684 whole entry): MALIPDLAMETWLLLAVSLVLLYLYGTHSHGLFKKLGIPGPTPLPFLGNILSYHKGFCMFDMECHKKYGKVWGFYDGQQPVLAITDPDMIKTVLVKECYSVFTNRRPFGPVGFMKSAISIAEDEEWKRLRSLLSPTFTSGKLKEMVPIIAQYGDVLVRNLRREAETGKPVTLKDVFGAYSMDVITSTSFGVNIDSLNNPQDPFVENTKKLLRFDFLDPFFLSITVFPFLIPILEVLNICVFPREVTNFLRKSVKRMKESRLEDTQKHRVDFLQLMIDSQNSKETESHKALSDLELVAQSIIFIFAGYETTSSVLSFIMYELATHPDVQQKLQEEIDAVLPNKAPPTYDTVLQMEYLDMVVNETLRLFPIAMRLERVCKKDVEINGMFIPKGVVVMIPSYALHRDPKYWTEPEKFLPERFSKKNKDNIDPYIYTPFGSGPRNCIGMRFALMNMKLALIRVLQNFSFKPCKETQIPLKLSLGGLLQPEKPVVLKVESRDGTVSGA
Readout name: AC50

Oc1ccc(Cc2cc(Cl)cc(Cl)c2O)cc1Cl    3.98 µM (inconclusive)
COC(=O)c1ccccc1NS(=O)(=O)c1ccc2c3c(cccc13)C(=O)N2    12.6 µM (inconclusive)
Cc1ccccc1C(=O)NC(=S)NCC(=O)c1ccccc1    28.2 µM (inconclusive)
CCSC(=N)Nc1ccc(C(F)(F)F)cc1    39.8 µM (inconclusive)
CCCc1cc(=O)oc2cc(OCc3cc(OC)c(OC)c(OC)c3)c(Cl)cc12    3.55 µM (inconclusive)

# AC50 of OC(COCC1COc2ccccc2O1)CN1CCc2ccccc2C1 (stereo unspecified) = 17.8 µM (inconclusive)

# AC50 of CCOC(=O)CSc1nc(O)c2cnn(-c3ccc(C)cc3)c2n1 = 3.16 µM (inconclusive)

# AC50 of NCCCCNS(=O)(=O)c1ccc2c(Cl)cccc2c1 = 25.1 µM (inconclusive)

# AC50 of CN(C)c1ccnc(-c2cccc(NS(C)(=O)=O)c2)n1 = 31.6 µM (inconclusive)

# AC50 of CCOC(=O)C1CCCN(c2ncnc3c2cnn3-c2cccc(C)c2)C1 (stereo unspecified) = 28.2 µM (inconclusive)

# AC50 of CC(C)Nc1nc(NC(C)(C)C)nc(Oc2ccc(=O)n(-c3ccccc3)n2)n1 = 12.6 µM (inconclusive)

----------
# Assayed system: ATP-dependent molecular chaperone HSP82 (Candida albicans (strain WO-1) (Yeast), UniProt C4YTQ8)
# Sequence (C4YTQ8 whole entry): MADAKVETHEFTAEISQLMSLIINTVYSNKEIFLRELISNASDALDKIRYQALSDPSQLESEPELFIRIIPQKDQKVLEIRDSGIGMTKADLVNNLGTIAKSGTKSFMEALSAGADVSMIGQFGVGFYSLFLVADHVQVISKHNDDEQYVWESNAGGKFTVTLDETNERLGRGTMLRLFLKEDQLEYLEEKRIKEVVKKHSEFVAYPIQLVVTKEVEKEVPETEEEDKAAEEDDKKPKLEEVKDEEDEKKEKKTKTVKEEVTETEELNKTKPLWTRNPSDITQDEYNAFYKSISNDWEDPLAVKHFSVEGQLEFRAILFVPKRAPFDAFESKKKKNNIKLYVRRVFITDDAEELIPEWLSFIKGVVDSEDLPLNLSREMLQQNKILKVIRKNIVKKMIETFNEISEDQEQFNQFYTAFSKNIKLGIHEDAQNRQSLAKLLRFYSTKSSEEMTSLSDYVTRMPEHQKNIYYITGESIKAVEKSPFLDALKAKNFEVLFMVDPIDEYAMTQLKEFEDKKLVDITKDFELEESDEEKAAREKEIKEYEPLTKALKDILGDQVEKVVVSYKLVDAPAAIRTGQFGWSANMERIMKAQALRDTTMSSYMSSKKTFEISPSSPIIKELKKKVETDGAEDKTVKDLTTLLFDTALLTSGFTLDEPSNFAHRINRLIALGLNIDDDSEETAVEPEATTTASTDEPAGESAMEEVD
# Protocol text: steroid-induced GRE reporter decrease in yeast – S. cerevisiae, luminescence, Hsp90 inhibitor project, dose response (AID 2400);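 further: beta-galactosidase luminescence from glucocorticoid response element reporter as proxy for Hsp90 function; inhibitor potency where signal loss means Hsp90 inhibition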
# Assay type: functional, cell-based
Active and inactive are the calls of the source.
Entries and their EC50

See these solved cases before continuing.
c1ccc2c(c1)CCN(c1[nH]cnc3c4ccccc4nc1-3)C2    > 150 µM (inactive)
COc1ccc(Cl)cc1C(Nc1cccnc1)c1ccc2cccnc2c1O (stereo not given)    16.3 µM (active)
COc1ccc(-c2nnc(NC(=O)c3ccc(S(=O)(=O)N4CCCc5ccccc54)cc3)o2)cc1    > 150 µM (inactive)
Cc1cccc(/C=C/C(=O)c2cc(Br)ccc(=O)c2O)c1    6.88 µM (active)

# EC50 of O=C(N/N=C/c1cc([N+](=O)[O-])ccc1O)c1ccc(COc2ccc3c(c2)CCC3)o1 = 28.3 µM (active)

----------
# Assayed system: DNA repair and recombination protein RAD54-like (Homo sapiens)
# Sequence (Q92698 whole entry): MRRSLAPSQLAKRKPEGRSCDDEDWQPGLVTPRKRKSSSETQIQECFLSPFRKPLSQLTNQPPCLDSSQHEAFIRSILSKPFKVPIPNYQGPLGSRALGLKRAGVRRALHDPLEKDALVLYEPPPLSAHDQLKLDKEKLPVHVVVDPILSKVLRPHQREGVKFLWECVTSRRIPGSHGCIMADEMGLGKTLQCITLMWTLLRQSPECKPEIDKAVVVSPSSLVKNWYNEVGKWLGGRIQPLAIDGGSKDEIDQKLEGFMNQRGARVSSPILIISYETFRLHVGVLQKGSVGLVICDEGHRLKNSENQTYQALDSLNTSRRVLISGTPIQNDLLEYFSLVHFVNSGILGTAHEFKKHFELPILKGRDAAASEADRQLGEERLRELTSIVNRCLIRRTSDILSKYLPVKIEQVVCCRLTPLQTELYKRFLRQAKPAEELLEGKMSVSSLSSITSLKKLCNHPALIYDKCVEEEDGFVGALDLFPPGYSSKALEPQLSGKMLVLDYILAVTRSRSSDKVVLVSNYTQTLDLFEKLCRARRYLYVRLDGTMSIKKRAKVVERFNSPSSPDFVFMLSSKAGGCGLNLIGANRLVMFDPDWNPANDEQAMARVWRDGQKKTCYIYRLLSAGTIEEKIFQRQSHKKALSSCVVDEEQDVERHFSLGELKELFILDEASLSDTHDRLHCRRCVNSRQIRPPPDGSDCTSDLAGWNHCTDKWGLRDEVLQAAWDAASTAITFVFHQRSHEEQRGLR
# Protocol text: RAD54 Holliday junction migration blockers – biochemical, fluorescence, cherry-picked samples, dose series, confirmation (AID 651657)
# Type: functional
Calls of active or inactive are those of the source.
Entries and their AC50

See these solved cases before continuing.
CN(C)CCOc1nc(-c2ccccc2)nc2c1oc1ccccc12    4.97 µM (active)
Cc1ccc(-c2nc(NCCN3CCOCC3)c3ccccc3n2)cc1    24.8 µM (active)
CCCCN(C)CCNC(=O)c1cc2c(-c3cccc(OC)c3)nn(C)c2s1    31.5 µM (active)

Field: next compound
Here O=C1c2cccc3cccc(c23)C(=O)N1CCCn1ccnc1 was tested on DNA repair and recombination protein RAD54-like (Homo sapiens), and its AC50 came to 20.2 µM (active)

----------
# Protocol text: Luminescence Cell-Based Dose Retest to Confirm Inhibitors of Cancer Stem Cells. [Related pubchem assays (depositor defined):AID2717, AID2721]
# Format: functional
# Measurement conditions: Homo sapiens
Activity calls are given as the source filed them.
Readout name: AC50

N#Cc1c(N)nc2c(c1-c1cccc(O)c1)CCCCCC2    5.01 µM (active)
C=C(C)CN=C(S)NNC(=O)CCn1c2ccc(Cl)cc2c2cc(Cl)ccc21    1.44 µM (active)
Cn1nnnc1Sc1ncnc2scc(-c3cccc(Br)c3)c12    1.86 µM (active)

# AC50 of Cc1ccc(C(C[N+](=O)[O-])n2nc(C)cc2C)cc1 (centres undefined) = 13 µM (active)

Taken from ChEMBL document CHEMBL1201862.
